# Tested on: HCT-116 colon
# method: NCI tumour cell line growth inhibition, 48 h; in the data active means GI50 below about 0.43 µM; inactive means the rest
Labels: active, inactive

[
  {
    "compound": "CN1CCN(c2ccc3nc(-c4ccc(OCCCCN5CCN(CCCCN6C(=O)c7cccc8cccc(c78)C6=O)CC5)cc4)[nH]c3c2)CC1",
    "study.target": "HCT-116 colon",
    "class.label": "inactive"
  },
  {
    "compound": "COc1ccc2c(c1)/C(=N/OC(C)=O)c1c-2cnc2ccccc12",
    "study.target": "HCT-116 colon",
    "class.label": "inactive"
  },
  {
    "compound": "C=CC(C)(O)CC/C=C(\\CO)C(=O)OC1C(C)OC(O[C@](C)(C=C)CC/C=C(\\CO)C(=O)O[C@H]2C[C@@]3(C(=O)OC4OC(CO)C(O)C(O)C4OC4OC(C)C(OC5OC(CO)C(O)C5O)C(OC5OC(CO)C(O)C(O)C5O)C4O)C(CC2(C)C)C2=CCC4[C@@]5(C)CC[C@H](OC6OC(COC7OC(C)C(O)C(O)C7OC7OCC(O)C(O)C7O)C(O)C(O)C6NC(C)=O)C(C)(C)C5CC[C@@]4(C)[C@]2(C)C[C@H]3O)C(O)C1O (stereo partly specified)",
    "study.target": "HCT-116 colon",
    "class.label": "active"
  },
  {
    "compound": "CCN(CC)Cc1cc(Nc2c3ccccc3nc3cc(Cl)ccc23)ccc1O",
    "study.target": "HCT-116 colon",
    "class.label": "inactive"
  },
  {
    "compound": "COc1cc(/C=N/NC(=O)c2ccccc2Nc2cccc(C(F)(F)F)c2)cc(OC)c1OC",
    "study.target": "HCT-116 colon",
    "class.label": "inactive"
  },
  {
    "compound": "COc1cc2c(cc1OCCCOc1ccc(-c3nc4ccc(N5CCN(C)CC5)cc4[nH]3)cc1)N=C[C@@H]1CCCN1C2=O",
    "study.target": "HCT-116 colon",
    "class.label": "active"
  }
]
